Assign LC50 to each entry below.
Assay: Toxicity in brine shrimp
Type: organism-based
Details: artemia, in vivo
// units = µg/mL; emit number, no label

Look up LC50: CCCCCCCCCCCC[C@H](O)[C@@H]1CC[C@@H]([C@@H](O)CCCCCCC(=O)CCCCC[C@@H](O)CC2=C[C@H](C)OC2=O)O1
0.84

What value of LC50 has been reported for the following compound? CCCCCCCCCCCC/C=C\CC[C@@H](O)[C@H](O)CCCCCCC(=O)CCCCC[C@@H](O)CC1=C[C@H](C)OC1=O
9.33

Which LC50 value is on record for CCCCCCCCCCCC[C@H](O)[C@@H]1CC[C@H]([C@H](O)CCCCCCC(=O)CCCCC[C@@H](O)CC2=C[C@H](C)OC2=O)O1 ?
0.98
